B1: mRNA-splicing (parent)
chain: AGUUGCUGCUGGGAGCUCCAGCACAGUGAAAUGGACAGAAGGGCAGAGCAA

- Variants of: B1
- Assay Name: exon inclusion enrichment index; higher = more inclusion; WT1 exon 5 minigene, HEK293
Below, each entry is listed with its recorded exon inclusion enrichment index.

Example cases with answers are listed next.
[
  {
    "Mut": "U32C G33C",
    "Obs Value": 0.303
  },
  {
    "Mut": "U7C G8A U10C",
    "Obs Value": 2.58
  },
  {
    "Mut": "C6A U7C C9A U10C C22A A23C",
    "Obs Value": 3.88
  },
  {
    "Mut": "C6A U7C G8U C9A U10A",
    "Obs Value": 0.176
  },
  {
    "Mut": "C6A U7A C9A U10A C16G",
    "Obs Value": 0.188
  },
  {
    "Mut": "G5A C6U U7A G8U C9A A40C G41C",
    "Obs Value": 0.455
  },
  {
    "Mut": "C6A U7A C9A U10A A35G C36G",
    "Obs Value": 0.0241
  },
  {
    "Mut": "G15C C16G",
    "Obs Value": 0.178
  }
]

Entry G5A C6U U7A G8U C9A A20G G21A , exon inclusion enrichment index reported as 0.112
